# Test system: SK-OV-3 ovarian
# assay summary: NCI tumour cell line growth inhibition, 48 h
measured metric: TGI (µM)
Entry rule: numbers only, all in µM.

What value of TGI has been recorded for this entry: CCCCCCc1cc2cc(C(=O)Nc3ccc(F)cc3)c(=N)oc2cc1O
8.09

What value of TGI has been recorded for this entry: O=C(CCN1CCOCC1)Nc1cccc(-n2cc(-c3ccncc3)c(-c3ccc(Cl)c(O)c3)n2)c1
14.4

What value of TGI has been recorded for this entry: O=[N+]([O-])c1c(F)c(F)c2c(c1F)N(CCCCCl)c1ccccc1S2
34

What value of TGI has been recorded for this entry: NC(N)=N/N=C(\N=Nc1ccccc1)c1ccc(Cl)cc1
9.63

What value of TGI has been recorded for this entry: CCOC(=O)C(Cc1ccc(O)cc1)Nc1nc(=O)c2c(=O)oc(Cl)cc2o1 (stereo unspecified)
27.7

What value of TGI has been recorded for this entry: COc1ccc2c(c1)c(-c1nc(-c3c[nH]c4ncccc34)cs1)cn2CCCCN1CCCCC1
3.18

What value of TGI has been recorded for this entry: C1=NC(N(Cc2ccccc2)Cc2ccccc2)N(Cc2ccccc2)N1 (stereo unspecified)
67.2

What value of TGI has been recorded for this entry: CNC(C)[C@H]1CCC2C3CC=C4C(=O)[C@@H](NC(=O)C=C(C)C)CC[C@]4(C)C3CC[C@@]21C (stereo partly specified)
9.5

What value of TGI has been recorded for this entry: C/C(=N\NC(=S)N1CCCC1)c1nc2ncccc2[nH]1
54.2
